So I've got a bunch of binders here, and I need their Kd values.
# Assay target: T1, human LRRC33-proTGFβ1 complex (human, UniProt Q86YC3 19-650; P01137 30-390)
# T1 construct: also called hLRRC33-proTGFβ1; hLRRC33
# T1 sequence (Q86YC3 other isoform, or with tags, fused parts or gaps limits assumed, chain 1 of 2): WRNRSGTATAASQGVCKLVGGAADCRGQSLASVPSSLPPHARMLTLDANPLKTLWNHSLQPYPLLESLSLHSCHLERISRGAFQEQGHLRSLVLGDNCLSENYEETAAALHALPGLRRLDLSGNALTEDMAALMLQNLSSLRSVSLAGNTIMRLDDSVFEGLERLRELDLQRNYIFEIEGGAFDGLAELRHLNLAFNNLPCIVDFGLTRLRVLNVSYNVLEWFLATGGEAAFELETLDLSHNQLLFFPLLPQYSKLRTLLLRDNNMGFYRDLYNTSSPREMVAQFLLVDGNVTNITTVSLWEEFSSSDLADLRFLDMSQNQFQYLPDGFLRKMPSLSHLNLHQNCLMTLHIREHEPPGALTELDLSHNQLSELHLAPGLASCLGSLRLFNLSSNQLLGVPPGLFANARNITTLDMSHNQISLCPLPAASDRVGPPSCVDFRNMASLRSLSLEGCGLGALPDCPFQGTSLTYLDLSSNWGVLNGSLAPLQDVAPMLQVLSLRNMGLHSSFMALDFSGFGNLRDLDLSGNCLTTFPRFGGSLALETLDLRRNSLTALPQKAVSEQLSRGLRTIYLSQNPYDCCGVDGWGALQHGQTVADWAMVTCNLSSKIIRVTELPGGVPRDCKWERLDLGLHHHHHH
# T1 sequence (P01137 30-390 limits assumed, chain 2 of 2): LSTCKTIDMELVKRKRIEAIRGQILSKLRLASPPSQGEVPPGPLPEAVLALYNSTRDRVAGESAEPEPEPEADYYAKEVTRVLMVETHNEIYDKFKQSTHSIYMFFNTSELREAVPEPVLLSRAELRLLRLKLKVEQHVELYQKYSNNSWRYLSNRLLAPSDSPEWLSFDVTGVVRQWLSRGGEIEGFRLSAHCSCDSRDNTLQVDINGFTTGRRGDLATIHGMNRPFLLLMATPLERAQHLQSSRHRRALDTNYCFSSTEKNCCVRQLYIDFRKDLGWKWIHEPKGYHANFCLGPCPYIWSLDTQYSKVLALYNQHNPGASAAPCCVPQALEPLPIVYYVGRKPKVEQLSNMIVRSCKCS
# Measurement protocol: BLI (Octet)
Provide only the numeric value, understood in nM.

Need Kd, item Ab11 (antibody, IgG4, V domains shown) VH: EVQLLESGGGLVQPGGSLRLSCAASGFTFRNYAMSWVRQAPGKGLEWVSSISGSGGATYYADSVKGRFTISRDNSKNTLYLQMNSLRAEDTAVYYCARVSSGHWDFDYWGQGTLVTVSS VL: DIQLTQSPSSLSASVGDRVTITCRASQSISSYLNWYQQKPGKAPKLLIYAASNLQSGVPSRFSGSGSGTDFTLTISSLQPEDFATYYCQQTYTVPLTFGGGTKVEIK
0.555

Please answer likewise for Ab32 (antibody, IgG4, V domains shown) VH: EVQLVESGGGLVQPGGSLRLSCAASGFTFSSFSMNWVRQAPGKGLEWVSYISPSADTIYYADSVKGRFTISRDNAKNTLYLQMNSLRAEDTAVYYCARGVWDMGDMLDPWGQGTLVTVSS VL: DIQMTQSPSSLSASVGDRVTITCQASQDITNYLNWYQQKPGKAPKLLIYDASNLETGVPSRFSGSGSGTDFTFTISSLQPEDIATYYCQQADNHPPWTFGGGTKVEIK
0.698
